Test system: HEK293T
experimental-protocol: plasma membrane surface immunostaining intensity (anti-HA, deep receptor scanning) (arbitrary fluorescence units); higher = higher plasma membrane expression
experimental-conditions: GPCR class: A
endpoint: plasma membrane surface immunostaining intensity
The answer should be a number; do not append a unit.

>  <primary-sequence>
MAATASPQPLATEDADSENSSFYYYDYLDEVAFMLCRKDAVVSFGKVFLPVFYSLIFVLGLSGNLLLLMVLLRYVPRRRMVEIYLLNLAISNLLFLVTLPFWGISVAWHWVFGSFLCKMVSTLYTINFYSGIFFISCMSLDKYLEIVHAQPYHRLRTRAKSLLLATIVWAVSLAVSIPDMVFVQTHENPKGVWNCHADFGGHGTIWKLFLRFQQNLLGFLLPLLAMIFFYSRIGCVLVRLRPAGQGRALKIAAALVVAFFVLWFPYNLTLFLHTLLDLQVFGNCEVSQHLDYALQVTESIAFLHCCFSPILYAFSSHRFRQYLKAFLAAVLGWHLAPGTAQASLSSCSESSILTAQEEMTGMNDLGERQSENYPNKEDVGNKSA [ACKR2]

>  <experimental-target>
HEK293T

>  <result-value>
6400

$$$$
>  <primary-sequence>
METPNTTEDYDTTTEFDYGDATPCQKVNERAFGAQLLPPLYSLVFVIGLVGNILVVLVLVQYKRLKNMTSIYLLNLAISDLLFLFTLPFWIDYKLKDDWVFGDAMCKILSGFYYTGLYSEIFFIILLTIDRYLAIVHAVFALRARTVTFGVITSIIIWALAILASMPGLYFSKTQWEFTHHTCSLHFPHESLREWKLFQALKLNLFGLVLPLLVMIICYTGIIKILLRRPNEKKSKAVRLIFVIMIIFFLFWTPYNLTILISVFQDFLFTHECEQSRHLDLAVQVTEVIAYTHCCVNPVIYAFVGERFRKYLRQLFHRRVAVHLVKWLPFLSVDRLERVSSTSPSTGEHELSAGF [CCR1]

>  <experimental-target>
HEK293T

>  <result-value>
5560

$$$$
>  <primary-sequence>
MPNNSTALSLANVTYITMEIFIGLCAIVGNVLVICVVKLNPSLQTTTFYFIVSLALADIAVGVLVMPLAIVVSLGITIHFYSCLFMTCLLLIFTHASIMSLLAIAVDRYLRVKLTVRYKRVTTHRRIWLALGLCWLVSFLVGLTPMFGWNMKLTSEYHRNVTFLSCQFVSVMRMDYMVYFSFLTWIFIPLVVMCAIYLDIFYIIRNKLSLNLSNSKETGAFYGREFKTAKSLFLVLFLFALSWLPLSIINCIIYFNGEVPQLVLYMGILLSHANSMMNPIVYAYKIKKFKETYLLILKACVVCHPSDSLDTSIEKNSE [ADORA3]

>  <experimental-target>
HEK293T

>  <result-value>
5830

$$$$

Then this sequence:
Challenge: Can you share its plasma membrane surface immunostaining intensity? I mean this sequence: MNYPLTLEMDLENLEDLFWELDRLDNYNDTSLVENHLCPATEGPLMASFKAVFVPVAYSLIFLLGVIGNVLVLVILERHRQTRSSTETFLFHLAVADLLLVFILPFAVAEGSVGWVLGTFLCKTVIALHKVNFYCSSLLLACIAVDRYLAIVHAVHAYRHRRLLSIHITCGTIWLVGFLLALPEILFAKVSQGHHNNSLPRCTFSQENQAETHAWFTSRFLYHVAGFLLPMLVMGWCYVGVVHRLRQAQRRPQRQKAVRVAILVTSIFFLCWSPYHIVIFLDTLARLKAVDNTCKLNGSLPVAITMCEFLGLAHCCLNPMLYTFAGVKFRSDLSRLLTKLGCTGPASLCQLFPSWRRSSLSESENATSLTTF [CXCR5]
Response given: 630
